Values from patent US10294202B2

Tested on: corn
Assay: Test C pre-/postemergence herbicide test
Type: in vivo, Zea mays
Conditions: Preemergence, 125 g ai/ha; scale 0 to 100 (0 no effect, 100 complete control)
What Plant response rating, Corn was measured for each of the following?

Field Plant response rating, Corn (entry O=C1NCC(c2ccc(C(F)(F)F)nc2)C1C(=O)Nc1cccc(F)c1F (racemic) ) reads 0

Field Plant response rating, Corn (entry O=C1NCC(c2cccc(Br)c2)C1C(=O)Nc1cccc(F)c1F (centres unmarked) ) reads 55

Field Plant response rating, Corn (entry O=C1NCC(c2cc(F)cc(F)c2)C1C(=O)Nc1cccc(F)c1F (racemic) ) reads 5

Field Plant response rating, Corn (entry O=C1NCC(c2ccc3c(c2)OC(F)(F)O3)C1C(=O)Nc1cccc(F)c1F (centres unmarked) ) reads 30

Field Plant response rating, Corn (entry O=C1NCC(c2ccc(C(F)(F)F)c(F)c2)C1C(=O)Nc1ccccc1F (racemic) ) reads 5

Field Plant response rating, Corn (entry O=C1NCC(c2ccccc2)C1C(=O)Nc1ccccc1F (racemic) ) reads 0

Field Plant response rating, Corn (entry CN1CC(c2ccc(F)c(F)c2)C(C(=O)Nc2ccccc2F)C1=O (centres unmarked) ) reads 0

Field Plant response rating, Corn (entry O=C1NCC(c2cc(F)c(F)c(F)c2)C1C(=O)Nc1ccccc1F (racemic) ) reads 0

###

System: pigweed
Experiment: Test A pre-/postemergence herbicide test
Type: in vivo, Amaranthus retroflexus
Conditions: Preemergence, 125 g ai/ha; 0 to 100 scale where 0 is no effect and 100 is complete control
What Plant response rating, Pigweed was measured for each of the following?
Just the number.

Measured Plant response rating, Pigweed for this entry O=C1NCC(c2cccc(C(F)(F)F)c2)C1C(=O)Nc1cccc(Cl)c1F (centres unmarked) on pigweed: 20

Measured Plant response rating, Pigweed for this entry O=C1NCC(c2cccc(-n3ccc(C(F)(F)F)n3)c2)C1C(=O)Nc1ccccc1C(F)(F)F (centres unmarked) on pigweed: 0

Measured Plant response rating, Pigweed for this entry O=C1NCC(c2ccc(C(F)(F)F)c(Cl)c2)C1C(=O)Nc1ccccc1F (racemic) on pigweed: 0

Measured Plant response rating, Pigweed for this entry O=C1NCC(c2cc3ccccc3s2)C1C(=O)Nc1cccc(F)c1F (centres unmarked) on pigweed: 0

Measured Plant response rating, Pigweed for this entry CN1CC(c2ccc(C(F)(F)F)cc2)C(C(=O)Nc2ccccc2F)C1=O (centres unmarked) on pigweed: 70

Measured Plant response rating, Pigweed for this entry O=C1NCC(c2ccc(Cl)s2)C1C(=O)Nc1ccccc1C(F)(F)F (centres unmarked) on pigweed: 0

Measured Plant response rating, Pigweed for this entry O=C1NCC(c2cccc(Oc3ccccc3)c2)C1C(=O)Nc1cccc(F)c1F (centres unmarked) on pigweed: 0

Measured Plant response rating, Pigweed for this entry O=C1NCC(c2cccc(-n3cccn3)c2)C1C(=O)Nc1cccc(F)c1F (centres unmarked) on pigweed: 0

###

Tested on: ducksalad
Test: Test C flooded paddy test
Format: in vivo, Heteranthera limosa
Conditions: Flood, 125 g ai/ha; scale of 0 to 100 where 0 is no effect and 100 is complete control; 13 to 15 days
What Plant response rating, Ducksalad was measured for each of the following?
Just the number.

Measured Plant response rating, Ducksalad for this entry O=C1NCC(c2ccc(F)cc2)C1C(=O)Nc1cccc(F)c1F (racemic) [Compound 119] on ducksalad: 100

Measured Plant response rating, Ducksalad for this entry O=C1NCC(c2cccc(OC(F)F)c2)C1C(=O)Nc1ccccc1F (centres unmarked) [Compound 223] on ducksalad: 65

Measured Plant response rating, Ducksalad for this entry O=C1NCC(c2cccc(C(F)(F)F)c2)C1C(=O)Nc1ccccc1Cl (centres unmarked) [Compound 312] on ducksalad: 65

Measured Plant response rating, Ducksalad for this entry Cc1cccc(NC(=O)C2C(=O)NCC2c2cccc(C(F)(F)F)c2)c1 (centres unmarked) [Compound 317] on ducksalad: 0

Measured Plant response rating, Ducksalad for this entry CN1CC(c2cccc(C(F)(F)F)c2)C(C(=O)Nc2ccccc2F)C1=O (centres unmarked) [Compound 277] on ducksalad: 80

Measured Plant response rating, Ducksalad for this entry O=C1NCC(c2ccc(C(F)(F)F)nc2)C1C(=O)Nc1cccc(F)c1F (racemic) [Compound 263] on ducksalad: 100

Measured Plant response rating, Ducksalad for this entry O=C1NCC(c2cccc(C(F)(F)F)c2)C1C(=O)Nc1nc(C(F)(F)F)co1 (racemic) [Compound 114] on ducksalad: 20

Measured Plant response rating, Ducksalad for this entry O=C1NCC(c2ccc(Cl)cc2)C1C(=O)Nc1ccccc1F (racemic) [Compound 87] on ducksalad: 75

Measured Plant response rating, Ducksalad for this entry CC(C)(C)c1cccc(C2CNC(=O)C2C(=O)Nc2cccc(F)c2F)c1 (racemic) [Compound 200] on ducksalad: 70

Measured Plant response rating, Ducksalad for this entry O=C1NCC(c2ccc(F)c(F)c2)C1C(=O)Nc1cccc(F)c1 (racemic) [Compound 12] on ducksalad: 0

Measured Plant response rating, Ducksalad for this entry O=C1NCC(c2cccc(Cl)c2)C1C(=O)Nc1cccc(F)c1F (racemic) [Compound 275] on ducksalad: 100

Measured Plant response rating, Ducksalad for this entry CC1NC(=O)C(C(=O)Nc2ccccc2C(F)(F)F)C1c1ccc(F)c(F)c1 (mixture of isomers) [Compound 10] on ducksalad: 0

Measured Plant response rating, Ducksalad for this entry O=C1NCC(c2cccc(C(F)(F)F)c2)C1C(=O)Nc1cccc(F)c1 (racemic) [Compound 208] on ducksalad: 0

Measured Plant response rating, Ducksalad for this entry CC1NC(=O)C(C(=O)Nc2ccccc2F)C1c1ccc(F)c(F)c1 (mixture of isomers) [Compound 7] on ducksalad: 0

###

System: giant foxtail
Test: Test A pre-/postemergence herbicide test
Type: in vivo, Setaria faberii
Conditions: Preemergence, 125 g ai/ha; visual rating on 0 to 100 scale (0 no effect, 100 complete control)
measurementName: Foxtail, Giant plant response rating

Field Foxtail, Giant plant response rating (entry O=C1NCC(c2cccc(F)c2)C1C(=O)Nc1ccccc1F (racemic) [Compound 1] ) reads 70

Field Foxtail, Giant plant response rating (entry O=C1NCC(c2cccc(C(F)(F)F)c2)C1C(=O)Nc1nncs1 (racemic) [Compound 111] ) reads 0

Field Foxtail, Giant plant response rating (entry O=C1NCC(c2ccc(F)c(C(F)(F)F)c2)C1C(=O)Nc1ccccc1C(F)(F)F (racemic) [Compound 78] ) reads 90

Field Foxtail, Giant plant response rating (entry O=C1NCC(c2cccc(Br)c2)C1C(=O)Nc1cccc(F)c1F (stereo not drawn) [Compound 64] ) reads 80

Field Foxtail, Giant plant response rating (entry COc1cccc(NC(=O)C2C(=O)NCC2c2ccc(F)c(F)c2)n1 (stereo not drawn) [Compound 58] ) reads 20

Field Foxtail, Giant plant response rating (entry O=C1NCC(c2ccc(Cl)cc2)C1C(=O)Nc1ccccc1F (racemic) [Compound 87] ) reads 60

Field Foxtail, Giant plant response rating (entry O=C1NCC(c2ccsc2)C1C(=O)Nc1ccccc1C(F)(F)F (racemic) [Compound 28] ) reads 0

Field Foxtail, Giant plant response rating (entry COc1ncccc1NC(=O)C1C(=O)NCC1c1ccc(F)c(F)c1 (stereo not drawn) [Compound 46] ) reads 40

Field Foxtail, Giant plant response rating (entry O=C1NCC(c2ccccc2)C1C(=O)Nc1cccc(F)c1F (stereo not drawn) [Compound 65] ) reads 80

###

System: corn
Assay: Test A pre-/postemergence herbicide test
Format: in vivo, Zea mays
Conditions: Postemergence, 500 g ai/ha
measurementName: Corn plant response rating (0 to 100 scale, 0 is no effect, 100 is complete control)
Just the number.

Field Corn plant response rating (0 to 100 scale, 0 is no effect, 100 is complete control) (entry CCc1cccc(C2CNC(=O)C2C(=O)Nc2ccc(F)c(F)c2F)c1 (racemic) [Compound 171] ) reads 70

Field Corn plant response rating (0 to 100 scale, 0 is no effect, 100 is complete control) (entry O=C1NCC(c2ccc(Cl)cc2)C1C(=O)Nc1ccccc1F (stereo not drawn) [Compound 217] ) reads 30

Field Corn plant response rating (0 to 100 scale, 0 is no effect, 100 is complete control) (entry Cc1cc(C2CNC(=O)C2C(=O)Nc2ccccc2Cl)ccc1F (racemic) [Compound 143] ) reads 0

###

What Plant response rating, Velvetleaf was measured for each of the following?
Test system: velvetleaf
Assay: Test A pre-/postemergence herbicide test
Assay type: in vivo, Abutilon theophrasti
Settings: Postemergence, 500 g ai/ha; 0 to 100 scale (0 no effect, 100 complete control)
Just the number.

Field Plant response rating, Velvetleaf (entry O=C1NCC(c2ccc(C(F)(F)F)nc2)C1C(=O)Nc1ccccc1C(F)(F)F (racemic) [Compound 264] ) reads 30

Field Plant response rating, Velvetleaf (entry N#Cc1ccccc1NC(=O)C1C(=O)NCC1c1ccc(Cl)c(Cl)c1 (racemic) [Compound 15] ) reads 0

Field Plant response rating, Velvetleaf (entry N#Cc1cccc(C2CNC(=O)C2C(=O)Nc2cccc(F)c2F)c1 (racemic) [Compound 73] ) reads 30

Field Plant response rating, Velvetleaf (entry N#Cc1ccccc1NC(=O)C1C(=O)NCC1c1ccccc1 (racemic) [Compound 86] ) reads 0

Field Plant response rating, Velvetleaf (entry O=C1NCC(c2ccc(F)c(F)c2)C1C(=O)Nc1cccc(F)c1F (racemic) [Compound 107] ) reads 20

Field Plant response rating, Velvetleaf (entry O=C1NCC(c2ccc(C(F)(F)F)c(F)c2)C1C(=O)Nc1ccccc1F (racemic) [Compound 246] ) reads 0

Field Plant response rating, Velvetleaf (entry O=C1NCC(c2ccccc2)C1(Br)C(=O)Nc1ccc(Br)cc1F (centres unmarked) [Compound 94] ) reads 0

Field Plant response rating, Velvetleaf (entry O=C1NCC(c2ccc(C(F)(F)F)c(F)c2)C1C(=O)Nc1cccc(F)c1F (racemic) [Compound 247] ) reads 0

Field Plant response rating, Velvetleaf (entry NC1=NCC(c2ccc(F)c(F)c2)C1C(=O)Nc1ccccc1F (centres unmarked) [Compound 95] ) reads 0

Field Plant response rating, Velvetleaf (entry O=C1NCC(c2ccc(F)c(F)c2)C1C(=O)Nc1cccc(F)c1 (racemic) [Compound 12] ) reads 20

Field Plant response rating, Velvetleaf (entry CC1NC(=O)C(C(=O)Nc2ccccc2F)C1c1ccc(F)c(F)c1 (mixture of isomers) [Compound 7] ) reads 0
